- procedure.summary: activity coefficient (dimensionless); of the first substance listed, at infinite dilution; xn = mol fraction of the nth substance listed
- test.settings: 368.15 K; 101.33 kPa; Liquid; Chromatography; x1 = 0
measurement.label: activity coefficient
// response body must contain only the number

- compound: "CCC(C)(C)OC [2-methoxy-2-methylbutane] + C[N+]1(CCCO)CCOCC1.N#C[N-]C#N"
  value: 66
- compound: "CCCc1ccccc1 [propylbenzene] + C[N+]1(CCCO)CCOCC1.N#C[N-]C#N"
  value: 50.2
- compound: "C1COCCO1 [1,4-dioxane] + C[n+]1ccn(CCCO)c1.N#CN=C=[N-]"
  value: 2.34
- compound: "CCC(=O)CC [pentan-3-one] + C[n+]1ccn(CCCO)c1.N#CN=C=[N-]"
  value: 6.11

Now for a further compound.
Identify measured activity coefficient associated with CC(C)c1ccccc1 [isopropylbenzene] + C[N+]1(CCCO)CCOCC1.N#C[N-]C#N 47.5

---

- procedure.summary: activity coefficient (dimensionless); of the first substance listed, at infinite dilution; xn = mol fraction of the nth substance listed
- test.settings: 338.15 K; 101.33 kPa; Liquid; Chromatography; x1 = 0
Label Y when activity coefficient is strictly below 10; otherwise label N.

Here are 8 compounds together with their reported answers.
- compound: "C1COCCO1 [1,4-dioxane] + C[N+]1(CCCO)CCOCC1.N#C[N-]C#N"
  group: "Y"
- compound: "CCCCCCCCCC [decane] + C[n+]1ccn(CCCO)c1.N#CN=C=[N-]"
  group: "N"
- compound: "CCc1ccccc1 [ethylbenzene] + C[n+]1ccn(CCCO)c1.N#CN=C=[N-]"
  group: "N"
- compound: "C#CCCC [1-pentyne] + C[n+]1ccn(CCCO)c1.N#CN=C=[N-]"
  group: "N"
- compound: "CO [methanol] + C[n+]1ccn(CCCO)c1.N#CN=C=[N-]"
  group: "Y"
- compound: "CCC(=O)CC [pentan-3-one] + C[N+]1(CCCO)CCOCC1.N#C[N-]C#N"
  group: "Y"
- compound: "C1CCCCCC1 [cycloheptane] + C[N+]1(CCCO)CCOCC1.N#C[N-]C#N"
  group: "N"
- compound: "CC(C)=O [acetone] + C[N+]1(CCCO)CCOCC1.N#C[N-]C#N"
  group: "Y"

Please let me know if CCCc1ccccc1 [propylbenzene] + C[n+]1ccn(CCCO)c1.N#CN=C=[N-] shows activity coefficient below 10. N

---

- procedure.summary: activity coefficient (dimensionless); of the first substance listed, at infinite dilution; xn = mol fraction of the nth substance listed
- test.settings: 318.15 K; 101.33 kPa; Liquid; Chromatography; x1 = 0
Output: class label from activity coefficient. Mapping: range A = under 4, range B = from 4 up to 10, range C = 10 and over

Here are 2 molecules together with their reported answers.
- molecule: "CCCCCCC [heptane] + C[n+]1ccn(CCCO)c1.N#CN=C=[N-]"
  group: "range C"
- molecule: "CC(C)c1ccccc1 [isopropylbenzene] + C[N+]1(CCCO)CCOCC1.N#C[N-]C#N"
  group: "range C"

Where would CC(C)O [propan-2-ol] + C[n+]1ccn(CCCO)c1.N#CN=C=[N-] land among the classes by reported activity coefficient? range A

Where would CCc1ccccc1 [ethylbenzene] + C[N+]1(CCCO)CCOCC1.N#C[N-]C#N land among the classes by reported activity coefficient? range C

Where would c1ccccc1 [benzene] + C[N+]1(CCCO)CCOCC1.N#C[N-]C#N land among the classes by reported activity coefficient? range B

---

- procedure.summary: activity coefficient (dimensionless); of the first substance listed, at infinite dilution; xn = mol fraction of the nth substance listed
- test.settings: 328.15 K; 101.33 kPa; Liquid; Chromatography; x1 = 0
Label YES when activity coefficient is strictly below 2; otherwise label NO.

- molecule: "CC(C)=O [acetone] + C[N+]1(CCCO)CCOCC1.N#C[N-]C#N"
  group: "NO"
- molecule: "CC#N [acetonitrile] + C[N+]1(CCCO)CCOCC1.N#C[N-]C#N"
  group: "YES"
- molecule: "O [water] + C[N+]1(CCCO)CCOCC1.N#C[N-]C#N"
  group: "YES"
- molecule: "C#CCCCCC [1-heptyne] + C[n+]1ccn(CCCO)c1.N#CN=C=[N-]"
  group: "NO"
- molecule: "CC(C)OC(C)C [diisopropyl ether] + C[n+]1ccn(CCCO)c1.N#CN=C=[N-]"
  group: "NO"

Please let me know if O [water] + C[n+]1ccn(CCCO)c1.N#CN=C=[N-] shows activity coefficient below 2. YES

Please let me know if CCOCC [diethyl ether] + C[n+]1ccn(CCCO)c1.N#CN=C=[N-] shows activity coefficient below 2. NO

Please let me know if C1CCCC1 [cyclopentane] + C[n+]1ccn(CCCO)c1.N#CN=C=[N-] shows activity coefficient below 2. NO

Please let me know if CCCC(=O)OC [methyl butanoate] + C[n+]1ccn(CCCO)c1.N#CN=C=[N-] shows activity coefficient below 2. NO

Please let me know if Cc1ccc(C)cc1 [1,4-dimethylbenzene] + C[N+]1(CCCO)CCOCC1.N#C[N-]C#N shows activity coefficient below 2. NO

---

- procedure.summary: activity coefficient (dimensionless); of the first substance listed, at infinite dilution; xn = mol fraction of the nth substance listed
- test.settings: 308.15 K; 101.33 kPa; Liquid; Chromatography; x1 = 0
The threshold is inclusive: activity coefficient of exactly 200 counts as satisfied; values below receive not satisfied.

Here are 4 compounds together with their reported answers.
- compound: "C=CCCCCCCCC [1-decene] + C[n+]1ccn(CCCO)c1.N#CN=C=[N-]"
  group: "satisfied"
- compound: "CC1CCCCC1 [methylcyclohexane] + C[N+]1(CCCO)CCOCC1.N#C[N-]C#N"
  group: "satisfied"
- compound: "C1CCCC1 [cyclopentane] + C[n+]1ccn(CCCO)c1.N#CN=C=[N-]"
  group: "not satisfied"
- compound: "CCCCCCCC [octane] + C[n+]1ccn(CCCO)c1.N#CN=C=[N-]"
  group: "satisfied"

activity coefficient >= 200 for CCCCCCC [heptane] + C[N+]1(CCCO)CCOCC1.N#C[N-]C#N ? satisfied

activity coefficient >= 200 for C#CCCCCC [1-heptyne] + C[n+]1ccn(CCCO)c1.N#CN=C=[N-] ? not satisfied

activity coefficient >= 200 for C=CCCCCC [1-heptene] + C[N+]1(CCCO)CCOCC1.N#C[N-]C#N ? satisfied

activity coefficient >= 200 for CCC(C)(C)OC [2-methoxy-2-methylbutane] + C[N+]1(CCCO)CCOCC1.N#C[N-]C#N ? not satisfied

activity coefficient >= 200 for C1=CCCCC1 [cyclohexene] + C[N+]1(CCCO)CCOCC1.N#C[N-]C#N ? not satisfied

activity coefficient >= 200 for CC(C)OC(C)C [diisopropyl ether] + C[N+]1(CCCO)CCOCC1.N#C[N-]C#N ? satisfied

activity coefficient >= 200 for CCCCCCCCCC [decane] + C[N+]1(CCCO)CCOCC1.N#C[N-]C#N ? satisfied

activity coefficient >= 200 for CCOCC [diethyl ether] + C[N+]1(CCCO)CCOCC1.N#C[N-]C#N ? not satisfied

activity coefficient >= 200 for CCCCCC [hexane] + C[n+]1ccn(CCCO)c1.N#CN=C=[N-] ? satisfied

activity coefficient >= 200 for C#CCCCCC [1-heptyne] + C[N+]1(CCCO)CCOCC1.N#C[N-]C#N ? not satisfied

activity coefficient >= 200 for COC(C)(C)C [2-methoxy-2-methylpropane] + C[N+]1(CCCO)CCOCC1.N#C[N-]C#N ? not satisfied

activity coefficient >= 200 for CCCCCCCCC [nonane] + C[n+]1ccn(CCCO)c1.N#CN=C=[N-] ? satisfied

activity coefficient >= 200 for C#CCCC [1-pentyne] + C[n+]1ccn(CCCO)c1.N#CN=C=[N-] ? not satisfied

activity coefficient >= 200 for C=CCCCCCCCC [1-decene] + C[N+]1(CCCO)CCOCC1.N#C[N-]C#N ? satisfied

---

- procedure.summary: activity coefficient (dimensionless); of the first substance listed, at infinite dilution; xn = mol fraction of the nth substance listed
- test.settings: 358.15 K; 101.33 kPa; Liquid; Chromatography; x1 = 0
measurement.label: activity coefficient

- compound: "CCO [ethanol] + C[N+]1(CCCO)CCOCC1.N#C[N-]C#N"
  measurement.label: "activity coefficient"
  value: 1.54
- compound: "Cc1cccc(C)c1 [1,3-dimethylbenzene] + C[N+]1(CCCO)CCOCC1.N#C[N-]C#N"
  measurement.label: "activity coefficient"
  value: 24.3
- compound: "CC(C)(C)O [2-methylpropan-2-ol] + C[N+]1(CCCO)CCOCC1.N#C[N-]C#N"
  measurement.label: "activity coefficient"
  value: 4.14
- compound: "CC(C)=O [acetone] + C[N+]1(CCCO)CCOCC1.N#C[N-]C#N"
  measurement.label: "activity coefficient"
  value: 2.51
- compound: "CCOC(C)=O [ethyl acetate] + C[n+]1ccn(CCCO)c1.N#CN=C=[N-]"
  measurement.label: "activity coefficient"
  value: 6.61
- compound: "CCC(=O)OC [methyl propanoate] + C[N+]1(CCCO)CCOCC1.N#C[N-]C#N"
  measurement.label: "activity coefficient"
  value: 8.81
- compound: "CCCOCCC [dipropyl ether] + C[N+]1(CCCO)CCOCC1.N#C[N-]C#N"
  measurement.label: "activity coefficient"
  value: 157
- compound: "CCC[N+](=O)[O-] [1-nitropropane] + C[N+]1(CCCO)CCOCC1.N#C[N-]C#N"
  measurement.label: "activity coefficient"
  value: 3.65

Now for a further compound.
Identify measured activity coefficient associated with C=CCCCC [hex-1-ene] + C[n+]1ccn(CCCO)c1.N#CN=C=[N-] 89

Cited source: the NIST ThermoML archive (doi:10.1016/j.jct.2017.11.017)
